Entry source: ChEMBL document CHEMBL5252617

target: Non-receptor tyrosine-protein kinase TYK2 (Homo sapiens, UniProt P29597); test: Inhibition of TYK2 dependent IFNalpha-stimulated STAT3 phosphorylation in human Jurkat cells
Sequence (P29597 whole entry, the tested form may be a part): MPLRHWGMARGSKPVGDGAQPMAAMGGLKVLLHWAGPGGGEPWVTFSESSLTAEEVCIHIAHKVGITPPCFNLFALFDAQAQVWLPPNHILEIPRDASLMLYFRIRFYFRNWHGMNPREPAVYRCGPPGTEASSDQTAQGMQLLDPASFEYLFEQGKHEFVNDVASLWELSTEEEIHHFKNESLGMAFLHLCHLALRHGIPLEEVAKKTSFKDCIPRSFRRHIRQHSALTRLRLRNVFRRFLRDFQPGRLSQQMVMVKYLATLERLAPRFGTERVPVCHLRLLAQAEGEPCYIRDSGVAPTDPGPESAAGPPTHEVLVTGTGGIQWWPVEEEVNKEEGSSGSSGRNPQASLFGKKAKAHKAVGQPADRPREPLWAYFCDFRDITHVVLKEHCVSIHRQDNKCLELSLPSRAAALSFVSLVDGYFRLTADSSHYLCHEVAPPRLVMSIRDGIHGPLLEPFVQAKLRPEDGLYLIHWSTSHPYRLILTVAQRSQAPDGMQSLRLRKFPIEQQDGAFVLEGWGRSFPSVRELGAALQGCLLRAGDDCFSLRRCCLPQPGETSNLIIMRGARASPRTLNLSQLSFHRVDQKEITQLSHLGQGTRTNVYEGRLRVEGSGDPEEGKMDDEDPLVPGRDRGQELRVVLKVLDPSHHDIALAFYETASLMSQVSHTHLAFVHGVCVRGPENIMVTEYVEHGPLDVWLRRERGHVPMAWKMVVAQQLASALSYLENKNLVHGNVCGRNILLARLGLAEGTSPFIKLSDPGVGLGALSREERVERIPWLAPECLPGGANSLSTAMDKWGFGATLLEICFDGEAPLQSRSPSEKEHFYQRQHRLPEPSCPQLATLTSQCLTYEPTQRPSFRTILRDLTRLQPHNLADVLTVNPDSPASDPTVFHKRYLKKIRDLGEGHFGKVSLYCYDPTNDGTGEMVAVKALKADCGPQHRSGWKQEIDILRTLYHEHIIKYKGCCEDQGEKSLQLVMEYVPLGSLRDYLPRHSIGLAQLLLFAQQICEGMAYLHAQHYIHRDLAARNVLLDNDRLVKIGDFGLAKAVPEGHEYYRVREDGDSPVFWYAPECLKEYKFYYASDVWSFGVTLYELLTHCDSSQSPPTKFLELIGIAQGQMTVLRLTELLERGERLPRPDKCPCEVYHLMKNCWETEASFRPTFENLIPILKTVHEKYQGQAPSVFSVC
readout-name: IC50 (nM)

// solved cases for IC50 follow
molecule	unit-info	recorded-result
[2H]C([2H])([2H])NC(=O)c1nnc(Nc2ccc(F)cn2)cc1Nc1cccc(C(=O)Nc2ccc(N3CCCCC3=O)cc2)c1OC	nM	1
[2H]C([2H])([2H])NC(=O)c1nnc(NC(=O)C2CC2)cc1Nc1cccc(C(=O)Nc2ccc(N3CCCCC3=O)c(Cl)c2)c1OC	nM	3.1

A. [2H]C([2H])([2H])NC(=O)c1nnc(NC(=O)C2CC2)cc1Nc1cccc(C(=O)Nc2ccc(N3CCCC3=O)cc2)c1OC
B. [2H]C([2H])([2H])NC(=O)c1nnc(NC(=O)C2CC2)cc1Nc1cccc(C(=O)Nc2ccc(N3CCCCC3)cc2)c1OC
C. [2H]C([2H])([2H])NC(=O)c1nnc(Nc2ccccn2)cc1Nc1cccc(C(=O)Nc2ccc(N3CCCCC3=O)cc2)c1OC
Task: Could you please sort these 3 entries by IC50 from high to low? Order the labels as requested and list them.
Output: B, A, C
(B: 12 nM, A: 8.3 nM, C: 0.81 nM)

P. [2H]C([2H])([2H])NC(=O)c1nnc(NC(=O)C2CC2)cc1Nc1cccc(C(=O)Nc2ccc(-c3cccc(=O)[nH]3)cc2)c1OC
Q. [2H]C([2H])([2H])NC(=O)c1nnc(NC(=O)C2CC2)cc1Nc1cccc(C(=O)Nc2ccc(-n3ccccc3=O)cc2)c1OC
R. [2H]C([2H])([2H])NC(=O)c1nnc(NC(=O)C2CC2)cc1Nc1cccc(C(=O)Nc2ccc(C3CCCNC3=O)cc2)c1OC (stereo unspecified)
S. [2H]C([2H])([2H])NC(=O)c1nnc(NC(=O)C2CC2)cc1Nc1cccc(C(=O)Nc2ccc(-c3ccc(F)c(=O)[nH]3)cc2)c1OC
Task: # sort list by recorded IC50, greatest to least Thanks in advance for listing the labels in the requested order.
Output: P, S, Q, R

###

molecular target: Non-receptor tyrosine-protein kinase TYK2 (Homo sapiens, UniProt P29597); assay: Binding affinity to TYK2 JH2 domain (unknown origin) assessed as melting temperature at 10 uM by thermal shift assay; conditions: tested as the 2H-labelled form
readout-name: Tm (°C)

smiles-notation	target-under-test	unit-info	Tm
CNC(=O)c1nnc(NC(=O)C2CC2)cc1Nc1cccc(C(=O)Nc2ccc(-c3ccc(F)c(=O)[nH]3)cc2)c1OC	Non-receptor tyrosine-protein kinase TYK2 (Homo sapiens, UniProt P29597)	°C	60.1
CNC(=O)c1nnc(NC(=O)C2CC2)cc1Nc1cccc(C(=O)Nc2ccc(N3CCCCC3=O)cc2F)c1OC	Non-receptor tyrosine-protein kinase TYK2 (Homo sapiens, UniProt P29597)	°C	60.8
CCn1cnc(-c2ccc(NC(=O)c3cccc(Nc4cc(NC(=O)C5CC5)nnc4C(=O)NC)c3OC)cc2)n1	Non-receptor tyrosine-protein kinase TYK2 (Homo sapiens, UniProt P29597)	°C	58.2
